- Study target: OX1R S103T (Homo sapiens, UniProt O43613, S103T)
- Construct: FLAG
- Sequence (O43613 whole entry S103T): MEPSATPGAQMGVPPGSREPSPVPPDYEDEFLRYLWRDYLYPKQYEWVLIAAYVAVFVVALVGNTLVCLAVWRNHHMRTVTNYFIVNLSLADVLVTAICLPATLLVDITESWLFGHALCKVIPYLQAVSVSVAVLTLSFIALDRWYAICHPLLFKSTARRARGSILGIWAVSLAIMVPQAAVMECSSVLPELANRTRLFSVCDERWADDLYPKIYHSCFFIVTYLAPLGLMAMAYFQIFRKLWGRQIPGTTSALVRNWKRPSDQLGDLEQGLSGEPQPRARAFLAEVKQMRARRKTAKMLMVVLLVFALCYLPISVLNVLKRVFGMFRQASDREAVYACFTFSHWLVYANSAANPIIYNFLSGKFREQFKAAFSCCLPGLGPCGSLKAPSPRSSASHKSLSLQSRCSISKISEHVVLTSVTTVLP
- Assay method text: IP accumulation assay, OX1R S103T
- Conditions: IP accumulation

>  <Molecule>
COC(=O)N1CCC[C@H](NS(C)(=O)=O)[C@@H]1CO[C@H]1CC[C@@H](c2ccccc2)CC1 [TAK-925]

>  <Measurement unit>
µM

>  <EC50>
5.3

$$$$

----------
- Study target: OX2R F346A (Homo sapiens, UniProt O43614, F346A)
- Sequence (O43614 1-444 F346A): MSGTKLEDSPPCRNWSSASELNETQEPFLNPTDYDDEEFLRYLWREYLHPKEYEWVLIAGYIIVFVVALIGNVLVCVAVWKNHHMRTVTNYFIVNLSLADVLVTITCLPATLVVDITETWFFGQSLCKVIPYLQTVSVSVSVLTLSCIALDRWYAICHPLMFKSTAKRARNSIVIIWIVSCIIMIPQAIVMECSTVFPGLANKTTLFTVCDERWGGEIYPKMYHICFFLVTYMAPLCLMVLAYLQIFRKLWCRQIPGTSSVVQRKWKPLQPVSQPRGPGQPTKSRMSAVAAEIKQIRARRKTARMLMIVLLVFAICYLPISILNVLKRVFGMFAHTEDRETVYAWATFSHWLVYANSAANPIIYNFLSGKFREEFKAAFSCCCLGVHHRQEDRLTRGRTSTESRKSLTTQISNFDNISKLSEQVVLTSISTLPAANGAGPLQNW
- Assay method text: β-arrestin PathHunter assay, OX2R F346A
- Conditions: β-arrestin recruitment
Measure: EC50 (nM)

>  <Molecule>
COC(=O)N1CCC[C@H](NS(C)(=O)=O)[C@@H]1CO[C@H]1CC[C@@H](c2ccccc2)CC1 [TAK-925]

>  <Measure>
EC50

>  <Measurement unit>
nM

>  <Endpoint value>
350

$$$$
